system: LOX IMVI melanoma; assay: NCI tumour cell line growth inhibition, 48 h
Label rule, in plain words: TGI of 20 µM and up is Y, under 20 µM is N.

{"Molecule": "N/C(=N\\N=C/c1ccc(O)c(O)c1O)NO", "Target system": "LOX IMVI melanoma", "Group": "Y"}
{"Molecule": "CN(C)CCCN1c2ccc([N+](=O)[O-])cc2CCc2cccc([N+](=O)[O-])c21", "Target system": "LOX IMVI melanoma", "Group": "Y"}

IN: Test whether the molecule COc1cc2c(c(OC)c1O)-c1ccc(SC)c(=O)cc1C(NC(C)=O)CC2 (stereo unspecified) records TGI of 20 µM or higher.
OUT: Y

IN: Test whether the molecule CCCCCCCCSC1=CC(=O)c2nc3ccccc3c3ccnc1c23 records TGI of 20 µM or higher.
OUT: Y

IN: Test whether the molecule C=CCC1(O)CC(n2cc(C)c(=O)[nH]c2=O)OC1CO[Si](C)(C)C(C)(C)C (stereo unspecified) records TGI of 20 µM or higher.
OUT: Y

IN: Test whether the molecule CCCN(CCC)CCc1ccc(OC2=CCN(C)CC2)cc1 records TGI of 20 µM or higher.
OUT: Y

IN: Test whether the molecule COC(=O)NC(Nc1ccccn1)(C(F)(F)F)C(F)(F)F records TGI of 20 µM or higher.
OUT: Y

IN: Test whether the molecule CCc1ccc2c(c1)C(=O)c1c-2n(CCCBr)c(=O)c2cc([N+](=O)[O-])ccc12 records TGI of 20 µM or higher.
OUT: Y

IN: Test whether the molecule CCOC(=O)c1c(SC(=O)c2ccc(C(C)(C)C)cc2)n(-c2ccccc2)c(=S)n(-c2ccccc2)c1=O records TGI of 20 µM or higher.
OUT: Y
